Data provenance: patent US20260116991A1

Each entry below lists one item and its recorded OD450 at 10 nM value.
biological target: T1, monkey GPC3-His protein (monkey); assay: ELISA, monkey GPC3-His coated;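 further: Plate-coated antigen at 1 µg/mL, antibody binding 2 h at 37 °C, detected with HRP-labeled secondary antibody and TMB, absorbance at 450 nm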
T1 construct: Bought recombinant protein; also called monkey GPC3 protein
Answer in OD450, number only, no unit symbol.

Reference set (4 entries):
- Binder: "F2.152.3 (antibody, human IgG1, kappa, V domains shown, Human-murine chimeric antibody) VH: EVQLQQSGPELVKPGASVKMSCKASGYTFTDYYMTWVKQSHGKSLEWIGRVNPRNGDTTYNQKFEGRATLTLDKSLSTAFMQLNSLTSEDSAVYYCINSKGHFDYWGQGTTLTVSS VL: DVLMTQTPLSLPVSLGDQASISCRSSQSIVHSNGNTYLEWFLQKPGQSPKSLIYKVSNRFSGVPDRFSGSGSGTDFTLKISRVEAEDLGVYYCFQGSHVPPTFGAGTKLELKR"
  OD450 at 10 nM [OD450]: 2.31
- Binder: "F2.55.11 (antibody, human IgG1, kappa, V domains shown, Human-murine chimeric antibody) VH: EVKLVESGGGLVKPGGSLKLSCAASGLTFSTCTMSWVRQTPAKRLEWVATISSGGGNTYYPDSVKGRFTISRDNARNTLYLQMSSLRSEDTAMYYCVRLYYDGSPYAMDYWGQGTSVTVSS VL: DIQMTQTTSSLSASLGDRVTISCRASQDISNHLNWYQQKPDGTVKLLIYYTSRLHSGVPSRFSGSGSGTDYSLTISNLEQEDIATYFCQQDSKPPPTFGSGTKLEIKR"
  OD450 at 10 nM [OD450]: 2.54
- Binder: "F3.81.19 (antibody, human IgG1, kappa, V domains shown, Human-murine chimeric antibody) VH: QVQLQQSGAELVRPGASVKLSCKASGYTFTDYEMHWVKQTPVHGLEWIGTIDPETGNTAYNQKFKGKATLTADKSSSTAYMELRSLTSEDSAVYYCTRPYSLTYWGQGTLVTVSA VL: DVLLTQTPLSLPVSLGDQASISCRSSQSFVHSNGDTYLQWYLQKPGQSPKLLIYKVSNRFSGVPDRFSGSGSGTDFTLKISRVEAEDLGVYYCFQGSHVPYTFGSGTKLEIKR"
  OD450 at 10 nM [OD450]: 2.55
- Binder: "F1.21.8 (antibody, human IgG1, kappa, V domains shown, Human-murine chimeric antibody) VH: EVQLQQSGPELVKPGASVKISCKTSGFLFTGHYMHWVKSSHGNILDWIGYIYPYNAISFYNQKFKGKATLTVDKSSNTAYMELRSLTSEDSAVYYCARGDYGNYVTAYWGQGTLVTVSA VL: DVLMTQTPLSLPVSLGDQASISCRSSQSIVHSSGNTYLEWYLQKPGQSPKLLIYKVSNRFSGVPDRFSGSGSGTDFTLKISRVEAEDLGVYYCFQGSHLPWTFGGGTKLDIKR"
  OD450 at 10 nM [OD450]: 1.11

Proceed to the following item.
The binder listed as F1.118.4 (antibody, human IgG1, kappa, V domains shown, Human-murine chimeric antibody) VH: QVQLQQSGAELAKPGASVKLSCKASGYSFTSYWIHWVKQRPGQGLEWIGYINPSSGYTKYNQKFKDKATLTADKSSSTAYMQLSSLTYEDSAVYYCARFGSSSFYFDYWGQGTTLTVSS VL: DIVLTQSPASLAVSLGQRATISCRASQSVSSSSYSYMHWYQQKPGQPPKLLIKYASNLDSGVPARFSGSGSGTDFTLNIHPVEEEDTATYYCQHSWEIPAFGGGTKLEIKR shows OD450 at 10 nM equal to 2.32
